# Tested on: human APOE RNA
# Procedure Summary: Dose-dependent inhibition of human APOE RNA in HepG2 cells, electroporation, 24 hours (Example 6)
# Format: cell-based
# Conditions Used: 1,280 nM
Strand notation (5' to 3'): a small letter for the sugar, then the base; units joined by * are phosphorothioate-linked, units joined directly phosphodiester-linked; [ ] holds rarer units or linkages, { } end groups; capitals alone tell only the bases. [ms] = mesyl phosphoramidate linkage; e = 2'-O-(2-methoxyethyl) (MOE); k = constrained ethyl (cEt); [5mC] = 5-methylcytosine; d = 2'-deoxy (DNA)
Measured Endpoint: APOE RNA (% UTC)

• 1736524: 6-10-4 MOE gapmer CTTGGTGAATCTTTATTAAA, linkages sssooozzssssssssoss (e[5mC]*eT*eT*eGeGeTdG[ms]dA[ms]dA*dT*d[5mC]*dT*dT*dT*dA*dT*eTeA*eA*eA) [compound 1736524] = 39
• 1736516 (e[5mC]*eTeTeG*eG*kT*dG[ms]dA[ms]dA[ms]dT*d[5mC]*dT*dT*dT*dA[ms]dT*eT*eA*eA*eA; antisense) [Compound 1736516] = 39
• 1736526: 6-10-4 MOE gapmer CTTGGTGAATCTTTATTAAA, linkages ssoooszzsssssssssss (e[5mC]*eT*eTeGeGeT*dG[ms]dA[ms]dA*dT*d[5mC]*dT*dT*dT*dA*dT*eT*eA*eA*eA) [compound 1736526] = 58
• 1736528 (e[5mC]*eT*eT*eG*eG*eTdG[ms]dA[ms]dA[ms]dT*d[5mC]*dT*dT*dT*dA[ms]dT*kT*eA*eA*eA; antisense) [Compound 1736528] = 50
• 1736518: 6-10-4 MOE gapmer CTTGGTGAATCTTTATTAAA, linkages soossszzzssssssssss (e[5mC]*eTeTeG*eG*eT*dG[ms]dA[ms]dA[ms]dT*d[5mC]*dT*dT*dT*dA*dT*eT*eA*eA*eA) [compound 1736518] = 37
